target-or-test-system: Histone-lysine N-methyltransferase NSD2 (Homo sapiens, UniProt O96028)
Sequence (O96028 whole entry): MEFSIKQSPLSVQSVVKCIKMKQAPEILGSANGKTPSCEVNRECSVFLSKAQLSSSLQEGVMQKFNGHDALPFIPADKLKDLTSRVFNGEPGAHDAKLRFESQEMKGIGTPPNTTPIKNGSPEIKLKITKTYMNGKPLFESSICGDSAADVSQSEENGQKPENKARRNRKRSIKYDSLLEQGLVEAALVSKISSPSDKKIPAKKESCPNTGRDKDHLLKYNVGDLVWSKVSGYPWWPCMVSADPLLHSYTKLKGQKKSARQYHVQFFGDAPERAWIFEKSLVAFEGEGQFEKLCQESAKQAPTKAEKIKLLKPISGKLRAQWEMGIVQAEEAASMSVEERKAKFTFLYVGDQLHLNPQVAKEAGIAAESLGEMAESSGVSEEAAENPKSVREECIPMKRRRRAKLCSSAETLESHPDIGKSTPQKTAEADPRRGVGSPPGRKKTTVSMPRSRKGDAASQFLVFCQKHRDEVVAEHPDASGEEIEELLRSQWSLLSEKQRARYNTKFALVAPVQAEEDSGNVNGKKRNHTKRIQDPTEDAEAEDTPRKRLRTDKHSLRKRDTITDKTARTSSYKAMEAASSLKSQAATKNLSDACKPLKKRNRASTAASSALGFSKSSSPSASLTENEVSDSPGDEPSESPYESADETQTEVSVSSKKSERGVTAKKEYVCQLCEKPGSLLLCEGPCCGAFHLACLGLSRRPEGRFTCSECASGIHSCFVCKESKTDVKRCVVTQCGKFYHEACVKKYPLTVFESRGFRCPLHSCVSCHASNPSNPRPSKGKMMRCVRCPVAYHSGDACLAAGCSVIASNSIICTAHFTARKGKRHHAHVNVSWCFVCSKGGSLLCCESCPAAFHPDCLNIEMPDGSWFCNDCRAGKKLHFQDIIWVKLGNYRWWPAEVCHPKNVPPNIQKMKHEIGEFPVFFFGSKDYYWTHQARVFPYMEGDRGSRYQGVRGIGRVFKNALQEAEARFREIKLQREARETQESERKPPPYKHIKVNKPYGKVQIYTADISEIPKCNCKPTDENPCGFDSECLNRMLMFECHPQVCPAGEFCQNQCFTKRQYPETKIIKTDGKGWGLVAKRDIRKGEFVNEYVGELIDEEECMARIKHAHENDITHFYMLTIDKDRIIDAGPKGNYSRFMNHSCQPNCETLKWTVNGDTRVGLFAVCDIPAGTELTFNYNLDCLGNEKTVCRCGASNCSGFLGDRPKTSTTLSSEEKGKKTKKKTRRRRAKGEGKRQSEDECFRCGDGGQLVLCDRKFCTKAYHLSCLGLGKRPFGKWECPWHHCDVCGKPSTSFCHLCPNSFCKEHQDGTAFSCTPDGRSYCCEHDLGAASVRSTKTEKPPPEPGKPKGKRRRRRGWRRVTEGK
Format: biochemical
Calls of active or inactive are those of the source.
Can you answer with just one of these options? true (1) = active, false (0) = inactive

Field: example entries. Status: answers known.
>>> class("COc1cc(OC)c([N+](=O)[O-])cc1/C=N/NC(=O)c1ccncc1")
"false (0)"
>>> class("O=C(O)c1ccc(-n2cccc2/C=C2/NC(=O)N(c3ccccc3)C2=O)cc1")
"true (1)"
>>> class("COc1cc(NCCCNC(C)C)c2nccc(C)c2c1")
"true (1)"
>>> class("Cn1cc2ccc(N)cc2n1")
"true (1)"
>>> class("CC(/C=C1\\SC(=S)N(NS(=O)(=O)c2ccccc2)C1=O)=C\\c1ccccc1")
"true (1)"
>>> class("Cc1oc2c(c1C(=O)c1ccccc1)C(=O)C(=O)c1ccccc1-2")
"true (1)"
>>> class("O=C1C(Cl)=C(NCCN2CCCCC2)C(=O)c2ccccc21")
"true (1)"

From here, focus on the item given below.
Dear colleague, could you share the recorded outcome for Cc1cc(/C=C\c2nc(O)c([N+](=O)[O-])c(O)n2)c(C)n1-c1ccccc1 when you have a moment?
false (0)

* * *

target-or-test-system: UniProt:P63165
test-method-notes: inhibitors of SUMO1 peptide binding, dose response, biochemical, fluorescence polarization, uHTS hits (AID 624382)
Assay type: functional
run-parameters: read-out: IC50_Mean
Calls of active or inactive are those of the source.
Can you answer with just one of these options? true = active, false = inactive

>>> class("Nc1ccc2nc3c(O)nc(S)nc3nc2c1")
"true"
>>> class("CSc1ccc(C=NNc2ccc(S(=O)(=O)Nc3ccccc3C(=O)O)cc2[N+](=O)[O-])cc1")
"true"
>>> class("O=C(O)c1ccc(-n2cccc2/C=C2/NC(=O)N(c3ccccc3)C2=O)cc1")
"false"
>>> class("C=CC1=C(C(=O)O)N2C(=O)[C@@H](NC(=O)/C(=N\\O)c3csc(N)n3)[C@H]2SC1 (stereo in doubt)")
"false"

Dear colleague, could you share the recorded outcome for COc1ccc(/C=N/Nc2cc(C)nc3ccc(OC)cc23)c(OC)c1 when you have a moment?
false

* * *

Field: IC50. Provide a value for each of the molecules that follow.
target-or-test-system: Small ubiquitin-related modifier 1 (Homo sapiens, UniProt P63165)
Sequence (P63165 whole entry): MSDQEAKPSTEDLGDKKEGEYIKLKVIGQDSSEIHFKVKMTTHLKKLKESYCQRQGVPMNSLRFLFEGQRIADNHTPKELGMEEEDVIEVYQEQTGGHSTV
test-method-notes: inhibitors of SUMO1 partner interactions, dose response, biochemical, FRET (AID 624383)
Format: functional
run-parameters: read-out: IC50_Mean
Calls of active or inactive are those of the source.

>>> test_value("Nc1ccc2nc3c(O)nc(S)nc3nc2c1")
"17.5 µM (active)"

Would you mind giving IC50 for every molecule in the list below?
1. COc1ccc(/C=N/Nc2cc(C)nc3ccc(OC)cc23)c(OC)c1
2. C=CC1=C(C(=O)O)N2C(=O)[C@@H](NC(=O)/C(=N\O)c3csc(N)n3)[C@H]2SC1 (stereo in doubt)
3. O=C(O)c1ccc(-n2cccc2/C=C2/NC(=O)N(c3ccccc3)C2=O)cc1
4. CSc1ccc(C=NNc2ccc(S(=O)(=O)Nc3ccccc3C(=O)O)cc2[N+](=O)[O-])cc1

9.36 µM (active)
6.25 µM (active)
9.62 µM (active)
50.8 µM (inactive)

* * *

target-or-test-system: UniProtKB P42574
Sequence (P42574 29-175 limits assumed): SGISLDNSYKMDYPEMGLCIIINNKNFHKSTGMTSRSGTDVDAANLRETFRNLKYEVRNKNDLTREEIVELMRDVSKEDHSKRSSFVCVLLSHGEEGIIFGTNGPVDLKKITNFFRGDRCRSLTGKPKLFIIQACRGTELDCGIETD
Sequence (P42574 176-277 limits assumed): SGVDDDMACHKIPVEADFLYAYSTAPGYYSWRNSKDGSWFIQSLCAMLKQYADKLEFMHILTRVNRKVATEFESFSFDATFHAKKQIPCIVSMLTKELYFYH
Assay type: functional
Activity calls are given as the source filed them.
measured-endpoint: IC50

Below are worked cases with known answers.
>>> test_value("CC(/C=C1\\SC(=S)N(NS(=O)(=O)c2ccccc2)C1=O)=C\\c1ccccc1")
"7.87 µM (active)"
>>> test_value("COc1ccc(-c2cc(-c3cc(C)ccc3O)n[nH]2)cc1")
"44.2 µM (active)"
>>> test_value("O=c1oc(-c2ccco2)nc2sc3c(c12)CCCC3")
"41.7 µM (active)"
>>> test_value("Cc1oc2c(c1C(=O)c1ccccc1)C(=O)C(=O)c1ccccc1-2")
"29.3 µM (active)"

Would you mind giving IC50 for every compound in the list below?
1. Cc1cc(C)nc(NC(=O)/C=C/c2ccc(Cl)cc2Cl)c1
2. COc1ccc(C(=O)Nc2nc3c(s2)Cc2cc(OC)ccc2-3)cc1

14.1 µM (active)
3.45 µM (active)
